assay: activity coefficient (dimensionless); of the first substance listed, at infinite dilution; xn = mol fraction of the nth substance listed; details: 368.15 K; 101 kPa; Liquid; Chromatography; x1 = 0
measurement-kind: activity coefficient
Numbers only.

Past entries and their recorded results:
CCCCCC [hexane] + CCCCCCOCn1cc[n+](C)c1.O=S(=O)([N-]S(=O)(=O)C(F)(F)F)C(F)(F)F | 6.24
CC(C)=O [acetone] + CCCCCCOCn1cc[n+](COCCCCCC)c1.O=S(=O)([N-]S(=O)(=O)C(F)(F)F)C(F)(F)F | 0.294
CCO [ethanol] + CCCCCCOCn1cc[n+](C)c1.O=S(=O)([N-]S(=O)(=O)C(F)(F)F)C(F)(F)F | 0.891
CO [methanol] + CCCCCCOCn1cc[n+](COCCCCCC)c1.O=S(=O)([N-]S(=O)(=O)C(F)(F)F)C(F)(F)F | 0.681
C1CCCCCC1 [cycloheptane] + CCCCCCOCn1cc[n+](COCCCCCC)c1.O=S(=O)([N-]S(=O)(=O)C(F)(F)F)C(F)(F)F | 2.12
C1CCCCC1 [cyclohexane] + CCCCCCOCn1cc[n+](C)c1.O=S(=O)([N-]S(=O)(=O)C(F)(F)F)C(F)(F)F | 3.91
CCCCCCCCCC [decane] + CCCCCCOCn1cc[n+](COCCCCCC)c1.O=S(=O)([N-]S(=O)(=O)C(F)(F)F)C(F)(F)F | 5.46
CCCCCCCCC [nonane] + CCCCCCOCn1cc[n+](COCCCCCC)c1.O=S(=O)([N-]S(=O)(=O)C(F)(F)F)C(F)(F)F | 4.53
CCCCC [pentane] + CCCCCCOCn1cc[n+](C)c1.O=S(=O)([N-]S(=O)(=O)C(F)(F)F)C(F)(F)F | 5.21
Cc1ccccc1C [1,2-dimethylbenzene] + CCCCCCOCn1cc[n+](C)c1.O=S(=O)([N-]S(=O)(=O)C(F)(F)F)C(F)(F)F | 1.36

Could you report activity coefficient for every entry in the following list?
1. C=CCCCCC [1-heptene] + CCCCCCOCn1cc[n+](C)c1.O=S(=O)([N-]S(=O)(=O)C(F)(F)F)C(F)(F)F
2. CCCO [propan-1-ol] + CCCCCCOCn1cc[n+](C)c1.O=S(=O)([N-]S(=O)(=O)C(F)(F)F)C(F)(F)F
3. C#CCCCC [1-hexyne] + CCCCCCOCn1cc[n+](C)c1.O=S(=O)([N-]S(=O)(=O)C(F)(F)F)C(F)(F)F

1. 5.05
2. 0.989
3. 1.99

Recorded activity coefficient for CCCCCCCCC [nonane] + CCCCCCOCn1cc[n+](C)c1.O=S(=O)([N-]S(=O)(=O)C(F)(F)F)C(F)(F)F , please?
11.9

* * *

assay: activity coefficient (dimensionless); of the first substance listed, at infinite dilution; xn = mol fraction of the nth substance listed; conditions: 298.15 K; 101 kPa; Liquid; Chromatography; x1 = 0
For each entry below, report its activity coefficient value.
One number for each entry.

C=CCCC [1-pentene] + CCCCCCOCn1cc[n+](COCCCCCC)c1.O=S(=O)([N-]S(=O)(=O)C(F)(F)F)C(F)(F)F | 1.9
CCCCCC [hexane] + CCCCCCOCn1cc[n+](C)c1.O=S(=O)([N-]S(=O)(=O)C(F)(F)F)C(F)(F)F | 8.36
O [water] + CCCCCCOCn1cc[n+](COCCCCCC)c1.O=S(=O)([N-]S(=O)(=O)C(F)(F)F)C(F)(F)F | 4.43

# ---- query molecule ----
Recorded activity coefficient for CCOCC [diethyl ether] + CCCCCCOCn1cc[n+](COCCCCCC)c1.O=S(=O)([N-]S(=O)(=O)C(F)(F)F)C(F)(F)F , please?
0.811
